Measured values drawn from ChEMBL document CHEMBL1201862 for this set.

System: SN12C
Experiment: NCI tumour cell line growth inhibition, 48 h
Calls of active or inactive are those of the source. Rule as the data show it: active = GI50 up to about 1.1 µM and inactive = higher. Where a SMILES comes first, the peptide text is derived from it. The star is where a group is joined. Cbz = O=C(OCc1ccccc1)*
I'd be grateful if you could share measured GI50 for these entries.

Request body: readout GI50, system SN12C, query OCC(O)COc1ccc(Br)cc1 (centres undefined) . Return the value.
60.3 µM (inactive)

Request body: readout GI50, system SN12C, query NNC(=O)C1(NC(=O)c2ccccc2)C(c2ccccc2)C(c2ccccc2)=NN1c1ccccc1 (centres undefined) . Return the value.
63.2 µM (inactive)

Request body: readout GI50, system SN12C, query `O=C(c1ccccc1)N1CCN(C(=S)NC2CCCCC2)C1=S` . Return the value.
17.8 µM (inactive)

Request body: readout GI50, system SN12C, query `O=C1c2ccccc2-c2ccc(/N=[N+](/[O-])c3ccc4c(c3)C(=O)c3ccccc3-4)cc21` . Return the value.
> 100 µM (inactive)

Request body: readout GI50, system SN12C, query `COc1ccc(C(=C[N+](=O)[O-])c2ccc(OC)cc2)cc1` . Return the value.
24 µM (inactive)

Request body: readout GI50, system SN12C, query `O=N/N=c1\o[n-][n+](CCc2ccccc2)c1Cc1/c(=N/N=O)o[n-][n+]1CCc1ccccc1` . Return the value.
34.5 µM (inactive)

Request body: readout GI50, system SN12C, query O=[N+]([O-])c1ccc(N2N=C(c3ccc4ccccc4c3O)CC2c2ccc(Cl)cc2Cl)c([N+](=O)[O-])c1 (centres undefined) . Return the value.
71 µM (inactive)

Request body: readout GI50, system SN12C, query COc1cc2c3c(c1OC)-c1ccccc1C(C(OC(C)=O)c1ccccc1)C3N(C)CC2 (centres undefined) . Return the value.
34.7 µM (inactive)

Request body: readout GI50, system SN12C, query CCOC(=O)CNC(=O)C(C)NC(=O)C(NC(=O)OCc1ccccc1)C(C)C (stereo not drawn) (Cbz-Val-Ala-Gly-OEt; configuration not given here) . Return the value.
> 100 µM (inactive)
